Origin of measurements: paper PMC8116641

system: influenza A virus A/California/07/09 (H1N1)pdm09 (Cal (H1N1)pdm09); assay: microbe, parasite or virus in culture; type: cell-based; details: Influenza A virus, H1N1, MDCK, read-out: IC50 (50% inhibitory concentration)
measured.property: pIC50
Reminder that pIC50 means the negative base-10 logarithm of the concentration expressed in mol/L.

[
  {
    "molecule": "CC1(C)[C@H]2CC[C@]1(C)[C@H](OC(=O)C[N+](C)(C)C)C2.[I-] [10a]",
    "readout.number": 4.77
  }
]

Consider the additional molecule presented here.
q: Complete the entry with pIC50 for NC(=O)c1ncn([C@@H]2O[C@H](CO)[C@@H](O)[C@H]2O)n1 [Ribavirin, reference compound]
a: 4.46
